target: Sigma 2 receptor; parameters: species or system Rattus norvegicus, Liver, Membrane
Description: Binding affinity for sigma-2 receptor measured on rat liver membranes using [3H]DTG as radioligand in the presence of (+)-pentazocine
Property Label: log10 Ki (log10 of the value in nM)
Recall that a logarithmic scale is used here: each number is log10 of Ki in nM.

INPUT: In one line, give reported log10 Ki of the entry COc1cc(I)cc(C(=O)NC2CC3CCCC(C2)N3Cc2ccccc2)c1OC (stereo not given) .
OUTPUT: 2.62

INPUT: In one line, give reported log10 Ki of the entry `COc1c(C(=O)NC[C@@H]2CCCN2C2CCCC2)cc(Br)c2ccccc12` .
OUTPUT: 1.71

INPUT: In one line, give reported log10 Ki of the entry `COc1c(C(=O)NC[C@@H]2CCCN2C2CCCCC2)cc(Br)c2ccccc12` .
OUTPUT: 2.17

INPUT: In one line, give reported log10 Ki of the entry `COc1c(C(=O)NC[C@H]2CCCN2Cc2ccccc2)cc(Br)c2ccccc12` .
OUTPUT: 2.32

INPUT: In one line, give reported log10 Ki of the entry `COc1c(C(=O)NC2CCN(C3CCCCC3)CC2)cc(Br)c2ccccc12` .
OUTPUT: 0.32

INPUT: In one line, give reported log10 Ki of the entry COc1c(C(=O)NC[C@@H]2CCCN2C2C3CCCC2CCC3)cc(Br)c2ccccc12 (stereo not given in full) .
OUTPUT: 2.43

INPUT: In one line, give reported log10 Ki of the entry COc1c(C(=O)N[C@H]2CCN(C3C4CCCC3CCC4)C2)cc(Br)c2ccccc12 (stereo not given in full) .
OUTPUT: 2.14

INPUT: In one line, give reported log10 Ki of the entry `COc1c(C(=O)N[C@H]2CCN(C3CCCCC3)C2)cc(Br)c2ccccc12` .
OUTPUT: 1.40

INPUT: In one line, give reported log10 Ki of the entry COc1c(C(=O)NC2CC3CCCC(C2)N3C2CCCCC2)cc(Br)c2ccccc12 (stereo not given) .
OUTPUT: 0.68

INPUT: In one line, give reported log10 Ki of the entry COc1c(C(=O)NC2CCN(C3C4CCCC3CCC4)CC2)cc(Br)c2ccccc12 (stereo not given) .
OUTPUT: 0.38
